method_description: Plasma concentration in Balb/C mouse at 100 mg/kg, ip bid measured after 1 hr
Format: ADME, organism-based
test_conditions: in vivo
measure: concentration (µM)

In [3]: df
Out[3]:
                                   compound  reading_unit  endpoint_result
0  CC1CCN(C(=O)C(CCn2cccc2C#N)NS(=O)(=O)c2cccc3[nH]ccc23)CC1 (stereo in doubt; form 1)            µM              7.6
1  CC1CCN(C(=O)C(CCn2cccc2C#N)NS(=O)(=O)c2cccc3[nH]ccc23)CC1 (stereo in doubt; form 2)            µM               18

Data origin, for the record: ChEMBL document CHEMBL3862010
